- System: 786-0 renal
- procedure.summary: NCI-60 one-dose screen, 48 h (100 = growth as untreated, 0 = no growth, -100 = all killed)
- stated.conditions: 10 µM unless noted
This is part of a sample that, as a whole, favours compounds with a hit. Of some 83,000 tested, about 20% had one in any assay.
measurement.kind: growth (%)
Note: unit % is implicit; provide only the numeric part.

Worked cases, growth given:
CC/C(=C(/c1ccc(Cl)cc1)c1ccc(OCCN2CCCCC2)cc1)c1ccc(OC)cc1    52
COc1cc2cc(NCc3cccc(Cl)c3)nc(C)c2cc1OC    39.9
O=C(/C=C/c1ccccc1)Nc1ncc(Cc2ccccc2Cl)s1    45.7

// moving on: another record for growth
Problem: Field request: growth | item: CN(C)Cc1ccc(O)c(C(=O)O)c1
Solution: 107

* * *

- System: U251 CNS
- procedure.summary: NCI-60 one-dose screen, 48 h (100 = growth as untreated, 0 = no growth, -100 = all killed)
- stated.conditions: 10 µM unless noted
About 83,000 compounds went through this panel and 20% of them were active in at least one assay; those are over-represented in the sample as a whole. The source made the active and inactive calls. Rule for the calls: active = growth percent below 10; inactive = the rest.
# key: entry, value: growth

N=C(N)c1ccc(-c2ccc(-c3ccccc3)o2)cc1    -77.7% (active)
COc1cc2nc3cc([N+](=O)[O-])ccc3c(NCCNCC(C)O)c2cc1OC (centres undefined)    -25.3% (active)
O=C(C[C@]1(O)C(=O)Nc2ccccc21)c1cccc(C(F)(F)F)c1    92.4% (inactive)
COc1cc2cc(NCc3cccc(Cl)c3)nc(C)c2cc1OC    31.1% (inactive)
CN1C(=O)/C(=C\c2c(Cl)cccc2Cl)c2ccccc21    88.4% (inactive)

Problem: Which measured growth value corresponds to COc1ccc(Nc2nc(-c3cc(O)c(C)c(C)c3O)cs2)cc1 ?
Solution: 70.2% (inactive)

Problem: Same for CC/C(=C(/c1ccc(Cl)cc1)c1ccc(OCCN2CCCCC2)cc1)c1ccc(OC)cc1
Solution: 40.6% (inactive)

Problem: # iterate: Cn1cc(-c2ccc3nc(-c4ccc(CC(=O)ONc5cc(C(C)(C)C)on5)cc4)cnc3c2)cn1
Solution: 32.3% (inactive)

Problem: And then CCOC(=O)C1=C(c2ccccc2)N=C2SC=C(c3ccc(Cl)cc3)N2C1c1ccc(Cl)cc1 (centres undefined) , what is it?
Solution: 80.9% (inactive)

Problem: And what about the compound O=C1/C(=C/c2ccccc2Br)COc2ccc(O)cc21 ?
Solution: 46.1% (inactive)

Problem: And CCC(=C(c1ccc(OCCN2CCCCC2)cc1)c1ccc(OCCN2CCCCC2)cc1)c1ccc(Cl)cc1 ?
Solution: -82.2% (active)

Problem: Also COc1ccc(\C=N/N=C(N)/C(N)=N\N=C/c2ccc(OC)cc2)cc1 , if possible.
Solution: 107% (inactive)

Problem: How about Nc1ncnc2c1C(c1ccccc1)c1ccc3ccccc3c1O2 (centres undefined) ?
Solution: 86.4% (inactive)

Problem: Ic1ccc(OCCCCn2ccnc2)cc1 ?
Solution: 67.8% (inactive)

* * *

- System: KM12 colon
- procedure.summary: NCI-60 one-dose screen, 48 h
- stated.conditions: 10 µM unless noted
The panel holds about 83,000 compounds, 20% with a hit somewhere; the sample as a whole holds those more often. Activity calls are given as the source filed them. The calls were made as follows: active = growth percent below 10; inactive = the rest.
I would appreciate it if you answered using one of these outcomes: active, inactive

c1csc(-c2ccc(CNc3c4ccccc4nc4ccccc34)cc2)c1    inactive
COc1ccc(C/C(C)=C(/c2ccc(OCCN(C)C)cc2)c2ccc(OC(=O)NCc3ccccc3)cc2)cc1    inactive

Problem: Given Cc1ccccc1/C=C/C(=O)c1cccc(OCCCCOc2cccc(C(=O)/C=C/c3ccccc3C)c2)c1 , state the outcome it received in this test.
Solution: inactive

Problem: Ok, now O=C(Nc1ccc(Oc2cccc(F)c2)c(Cl)c1)c1cccnc1
Solution: inactive

Problem: One more compound: CCOC(=O)c1csc(NC(=O)COc2ccc(/C=C3\Oc4ccccc4C3=O)cc2)n1
Solution: inactive

Problem: And what about the compound N#CSc1c[nH]c2cccc(/C=C/C(=O)/C=C(/C=C/c3cccc4[nH]cc(SC#N)c34)OB(F)F)c12 ?
Solution: inactive

Problem: Then what about the compound COc1cc2nc3cc([N+](=O)[O-])ccc3c(NCCNCC(C)O)c2cc1OC (stereo unspecified) ?
Solution: active

Problem: Try this compound too: N#Cc1nc(-c2ccc(Cl)cc2)oc1S(=O)(=O)N1CCN(c2ccc(F)cc2)CC1
Solution: inactive
